The origin of these recorded values is patent US5763457A.

IC50 by entry:
# MEASUREMENT TARGET: muscarinic receptors (M1 -site, pirenzepine sensitive site) (Rattus norvegicus)
# Construct: from tissue; host or cells: fresh cerebral cortex membranes, male Wistar rat
# EXPERIMENT NOTES: inhibition of ^3 HPRZ (pirenzepine, [N-methyl-^3 H]) binding to rat cerebral cortex membranes
# EXPERIMENTAL CONTEXT: ^3 HPRZ 1.0 nM, 60 min, 20° C.

COMPOUND	IC50, nM
CCCCOc1nonc1OC1CN2CCC1CC2 (racemic)	56
CC(C)CSc1nccnc1O[C@H]1CN2CCC[C@@H]1C2 (relative stereo)	1.7
CSc1nccnc1OC1CN2CCC1CC2 (racemic)	42
C(=Cc1ccccc1)CSc1nccnc1O[C@H]1CN2CCC[C@@H]1C2 (relative stereo)	4.8
Clc1nccnc1OC1CN2CCC1CC2 (racemic)	253
CCCSc1nccnc1OC1CN2CCC1CC2 (racemic)	13

====

# MEASUREMENT TARGET: muscarinic receptors (M1 -site, pirenzepine sensitive site) (Rattus norvegicus, UniProt P08482)
# Sequence (P08482 1-460): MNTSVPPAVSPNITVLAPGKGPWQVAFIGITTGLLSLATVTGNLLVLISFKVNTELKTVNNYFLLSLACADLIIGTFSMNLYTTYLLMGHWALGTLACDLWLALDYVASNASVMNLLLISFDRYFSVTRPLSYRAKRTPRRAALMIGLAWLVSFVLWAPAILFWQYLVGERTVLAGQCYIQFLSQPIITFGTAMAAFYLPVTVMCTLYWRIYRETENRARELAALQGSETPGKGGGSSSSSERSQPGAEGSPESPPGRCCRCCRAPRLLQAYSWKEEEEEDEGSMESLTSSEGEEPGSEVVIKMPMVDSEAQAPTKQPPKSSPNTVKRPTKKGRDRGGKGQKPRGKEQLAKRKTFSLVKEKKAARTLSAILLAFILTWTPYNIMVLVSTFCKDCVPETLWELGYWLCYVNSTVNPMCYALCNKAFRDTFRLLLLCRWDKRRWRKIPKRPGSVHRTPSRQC
# EXPERIMENT NOTES: inhibition of ^3 HPRZ (pirenzepine, [N-methyl-^3 H]) binding to rat cerebral cortex membranes
# EXPERIMENTAL CONTEXT: ^3 HPRZ 1.0 nM, 60 min, 20° C.
Entries annotated with measured IC50

MOLECULE	UNIT TAG	CENSORING OPERATOR	IC50
FC(F)(F)CSc1cncc(O[C@H]2CN3CCC[C@@H]2C3)n1 (relative stereo)	nM	=	17
FC(F)(F)Oc1ccc(CSc2nccnc2O[C@H]2CN3CCC[C@@H]2C3)cc1 (relative stereo)	nM	=	3.3
CCSc1nccnc1O[C@H]1CN2CCC[C@@H]1C2 (relative stereo)	nM	=	4
CC(C)=CCCSc1nccnc1O[C@H]1CN2CCC[C@@H]1C2 (relative stereo)	nM	=	2.2
C/C=C/CSc1nccnc1O[C@H]1CN2CCC[C@@H]1C2 (relative stereo)	nM	=	0.66
FC(F)(F)CCCSc1nccnc1O[C@H]1CN2CCC[C@@H]1C2 (relative stereo)	nM	=	0.54
COCCSc1nccnc1O[C@H]1CN2CCC[C@@H]1C2 (relative stereo)	nM	=	1.6
Clc1cncc(O[C@H]2CN3CCC[C@@H]2C3)n1 (relative stereo)	nM	=	52
CCCCCCSc1nccnc1OC1CN2CCC1CC2 (racemic)	nM	=	13
CN1CCC[C@H]1COc1cnccn1	nM	=	5710
COc1nccnc1OC1CN2CCC1CC2 (racemic)	nM	=	223
CCSc1nccnc1OC1CN2CCC1CC2 (racemic)	nM	=	21
CCCCCSc1nccnc1OC1CN2CCC1CC2 (racemic)	nM	=	6.7
c1cnc(O[C@H]2CN3CCC[C@@H]2C3)cn1	nM	=	123
CCCCCCCSc1nccnc1OC1CN2CCC1CC2 (racemic)	nM	=	23
Clc1nccnc1O[C@H]1CN2CCC[C@@H]1C2 (relative stereo)	nM	=	108
CC(C)CCSc1nccnc1O[C@H]1CN2CCC[C@@H]1C2 (relative stereo)	nM	=	0.76
CCOc1nccnc1OC1CN2CCC1CC2 (racemic)	nM	=	53
CN1[C@@H]2CC[C@H]1C[C@@H](Oc1cnccn1)C2	nM	=	680
CCCCSc1nccnc1OCCN(C)C	nM	=	4.5
CCCCCCOc1nccnc1OC1CN2CCC1CC2 (racemic)	nM	=	32
CCCCCSc1nccnc1O[C@H]1CN2CCC[C@@H]1C2 (relative stereo)	nM	=	0.82
CN(C)CCOc1cnccn1	nM	>	1000
CCCCOc1nccnc1OC1CN2CCC1CC2 (racemic)	nM	=	14.5
CCCCCOc1nccnc1OC1CN2CCC1CC2 (racemic)	nM	=	30
C[N+](C)(C)CCOc1cnccn1	nM	>	1000
Cc1nccnc1O[C@H]1CN2CCC[C@@H]1C2 (relative stereo)	nM	=	246
FC(F)(F)CSc1nccnc1O[C@H]1CN2CCC[C@@H]1C2 (relative stereo)	nM	=	0.7
CCCCSc1nccnc1O[C@H]1CN2CCC[C@@H]1C2 (relative stereo)	nM	=	0.54
c1cnc(OC2CN3CCC2CC3)cn1 (racemic)	nM	>	1000
CCCSc1nccnc1O[C@H]1CN2CCC[C@@H]1C2 (relative stereo)	nM	=	0.68
C=CCSc1nccnc1O[C@H]1CN2CCC[C@@H]1C2 (relative stereo)	nM	=	5.8
CCCCOc1nccnc1O[C@H]1CN2CCC[C@@H]1C2 (relative stereo)	nM	=	2.7
CCCOc1nccnc1OC1CN2CCC1CC2 (racemic)	nM	=	21
CCCSc1cncc(O[C@H]2CN3CCC[C@@H]2C3)n1 (relative stereo)	nM	=	80
CCCCSc1nccnc1OC1CN2CCC1CC2 (racemic)	nM	=	0.9
CCCCSc1nccnc1OCC[N+](C)(C)C	nM	=	5.4

====

# MEASUREMENT TARGET: muscarinic acetylcholine receptors
# EXPERIMENT NOTES: inhibition of specific binding of ^3 H-Oxotremorine-M (^3 H-Oxo)
# EXPERIMENTAL CONTEXT: ^3 H-Oxotremorine 1.0 nM, rat cortex, 30 min, 25° C.
pIC50: −log10 of the molar value.
Lab note: compare pIC50 against 8. Equal or greater, write Yes. Smaller, write No.

COMPOUND	ANSWER LABEL
CCCCCCOc1nccnc1OC1CN2CCC1CC2 (racemic)	No
CCCCOc1nonc1OC1CN2CCC1CC2 (racemic)	No
CCCOc1nccnc1OC1CN2CCC1CC2 (racemic)	No
CCCCSc1nccnc1OC1CN2CCC1CC2 (racemic)	Yes
Clc1nccnc1OC1CN2CCC1CC2 (racemic)	No
CCCCOc1nccnc1OC1CN2CCC1CC2 (racemic)	No
